# credit: the supplement of paper PMC10567573

B1: DVL3 (parent)
chain: FCADNPSELPPPMERTGGIGDSRP

Variants of: B1
protocol-description: protein stability index of a GFP-peptide fusion (GPS, HEK-293T) (PSI 1-6); higher = more stable;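 note: lentivirally expressed fusions sorted by FACS into six bins by GFP to DsRed ratio, PSI derived from sequencing read proportions per bin multiplied by bin number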
assay-setup: c terminus: a fixed tail appended
Kind request: treat 4 as inclusive, so protein stability index at 4 or higher is Y, anything lower is N.

> print(dat)
   variant.string  category.label
1             N5Y               N
2             C2V               N
3            R23T               Y

Ask | Determine whether this variant has protein stability index no lower than 4: `P12M`
Reply | Y

Ask | Determine whether this variant has protein stability index no lower than 4: `F1G`
Reply | Y

Ask | Determine whether this variant has protein stability index no lower than 4: `L9F`
Reply | Y

Ask | Is it the case that `G18A` has protein stability index reaching or exceeding 4?
Reply | Y

Ask | Check this variant for protein stability index at or above 4: `C2L`
Reply | Y

Ask | Given the entry `L9H` , answer whether its protein stability index meets or surpasses 4.
Reply | Y
